# Tested on: Prostate-specific antigen (PSA) production in LNCaP cells
# assay_remarks: PSA Assay (inhibition of PSA production in prostate cancer cells, ELISA)
# Type: cell-based, human
# condition_context: read-out: LNCAP IC50; inhibition of PSA production, LNCaP cells, R1881 1 ng/ml, three days, seven point assay
# Method: PSA Assay (Inhibition Test of the Compound of the Present Invention on Prostate-Specific Antigen (PSA) Production in Various Prostate Cancer Cells). Androgen dependent LNCaP cells were purchased from the American Type Culture Collection (ATCC, Manassas, Va.). […] Three days after the addition, the concentration of PSA in the supernatant of the culture solution was measured by ELISA. […] The plates were read using a plate reader at 450 nm with a 650 nm reference filter. […]
pIC50: −log10 of the molar value.
reported_metric: pIC50

query_smiles=CC1(C)C(=O)N(c2ccc(C#N)c(Cl)c2F)C(=S)N1c1ccc(CCCC#N)cc1 observed_value=6.32
